- System: Human immunodeficiency virus 1
- ASSAY_NOTES: Antiviral activity against wild-type HIV1 3B infected in MT4 cells assessed as reduction in virus-induced cytopathic effect after 5 days by MTT assay
- Type: functional, organism-based
- EXPERIMENTAL_SETUP: Human immunodeficiency virus 1, 3B, MT4, 120 h
REPORTED_ENDPOINT: EC50

Field EC50 (entry COc1ccnc(Nc2ccc(Cl)c(OCc3ccc([N+](=O)[O-])cc3)c2)n1 ) reads > 323 µM

response.value for COC(=O)c1ccc(COc2cc(Nc3nccc(OC)n3)ccc2Cl)cc1 (field: EC50) = > 106 µM

EC50 in this record for COc1ccnc(Nc2ccc(Cl)c(OCc3ccc(Cl)cc3Cl)c2)n1 : > 77 µM

Looking up COc1ccnc(Nc2ccc(Cl)c(OCc3ccc(Cl)c(Cl)c3)c2)n1 , I see its EC50 listed as > 304 µM

###

# maps each entry to its CC50 at 120 h
- ASSAY_NOTES: Cytotoxicity against mock-infected human MT4 cells after 5 days by MTT assay
- Type: cell-based

{"COMPOUND": "COc1ccnc(Nc2ccc(Cl)c(OCc3cccc(Br)c3)c2)n1", "REPORTED_ENDPOINT": "CC50 at 120 h", "READING": "> 297 µM"}
{"COMPOUND": "Cc1ccnc2c1NC(=O)c1cccnc1N2C1CC1 [NEVIRAPINE]", "REPORTED_ENDPOINT": "CC50 at 120 h", "READING": "> 15 µM"}

Please look at the following compound next.
The compound listed as COc1ccnc(Nc2ccc(Cl)c(OCc3ccc(Cl)c(Cl)c3)c2)n1 shows CC50 at 120 h equal to > 304 µM

###

- ASSAY_NOTES: Selectivity index, ratio of CC50 for human MT4 cells to EC50 for wild-type HIV1 3B infected in MT4 cells
- Type: toxicity, cell-based
- EXPERIMENTAL_SETUP: read-out: Ratio CC50/EC50
REPORTED_ENDPOINT: selectivity ratio
Reply briefly: the number, and no unit.

{"MOL": "COc1ccnc(Nc2ccc(Cl)c(OCc3ccccc3)c2)n1", "selectivity ratio": 833}

Record summary for COc1ccnc(Nc2ccc(Cl)c(OCc3ccc(Cl)cc3)c2)n1 : reported selectivity ratio = 12

// selectivity ratio value for COc1ccnc(Nc2ccc(Cl)c(Oc3ccccc3)c2)n1 : 15

Memo: COc1ccnc(Nc2ccc(Cl)c(OCc3ccccc3C#N)c2)n1 , reported selectivity ratio: 1290

###

- Test system: Human immunodeficiency virus 2
- ASSAY_NOTES: Antiviral activity against HIV2 ROD infected in MT4 cells assessed as reduction in virus-induced cytopathic effect after 5 days by MTT assay
- Assay type: functional, organism-based
- EXPERIMENTAL_SETUP: Human immunodeficiency virus 2, ISOLATE ROD, MT4, 120 h
REPORTED_ENDPOINT: EC50

{"MOL": "COc1ccnc(Nc2ccc(Cl)c(OCc3cccc(Cl)c3)c2)n1", "REPORTED_ENDPOINT": "EC50", "READING": "> 332 µM"}
{"MOL": "COc1ccnc(Nc2ccc(Cl)c(OCc3ccc(Cl)c(Cl)c3)c2)n1", "REPORTED_ENDPOINT": "EC50", "READING": "> 304 µM"}
{"MOL": "COc1ccnc(Nc2ccc(Cl)c(OCc3ccc(C#N)cc3)c2)n1", "REPORTED_ENDPOINT": "EC50", "READING": "> 283 µM"}
{"MOL": "COc1ccnc(Nc2ccc(Cl)c(OCc3ccccc3C)c2)n1", "REPORTED_ENDPOINT": "EC50", "READING": "> 8.8 µM"}
{"MOL": "COc1ccnc(Nc2ccc(Cl)c(OCc3ccc(F)cc3)c2)n1", "REPORTED_ENDPOINT": "EC50", "READING": "> 218 µM"}

response.value for COc1ccnc(Nc2ccc(Cl)c(OCc3ccccc3)c2)n1 (field: EC50) = > 62 µM

COc1ccnc(Nc2ccc(Cl)c(OCc3ccccc3Br)c2)n1 yielded EC50 of > 52 µM

Measured EC50, COc1ccnc(Nc2ccc(Cl)c(OCc3ccc(Cl)cc3Cl)c2)n1 : > 77 µM

###

- ASSAY_NOTES: Selectivity index, ratio of CC50 for human MT4 cells to EC50 for wild-type HIV1 3B infected in MT4 cells
- Format: toxicity, cell-based
- EXPERIMENTAL_SETUP: read-out: Ratio CC50/EC50
REPORTED_ENDPOINT: selectivity ratio

Record excerpt, results attached:
{"COMPOUND": "COc1ccnc(Nc2ccc(Cl)c(OCc3cccc(F)c3)c2)n1", "selectivity ratio": "> 4870"}
{"COMPOUND": "COc1ccnc(Nc2ccc(Cl)c(OCc3ccc(C(N)=O)cc3)c2)n1", "selectivity ratio": "> 9"}
{"COMPOUND": "COc1ccnc(Nc2ccc(Cl)c(OCc3ccc([N+](=O)[O-])cc3)c2)n1", "selectivity ratio": "> 1"}

# selectivity ratio of O=C1Nc2ccc(Cl)cc2[C@@](C#CC2CC2)(C(F)(F)F)O1 [EFAVIRENZ] = > 693
